Experiment: HCV replicon assay (luciferase reporter, ET cell line)
Type: cell-based
Conditions: Hepatitis C virus, HCV replicon luciferase activity in ET cells
measured-parameter: inhibition at 10 µM

> print(dat)
                                   compound   measured.parameter  result
1  O=C(c1nc2c(C(F)(F)F)cc(-c3ccoc3)cn2c1Cl)N1CC[C@H](c2ccccc2)C1 [Compound 261]  inhibition at 10 µM   87.9%
2  O=C(NCc1cccs1)c1nc2c(Cl)cc(-c3ccccc3)cn2c1Cl [Compound 370]  inhibition at 10 µM   80.4%
3  O=S(=O)(NCc1cn2cc(-c3ccoc3)cc(C(F)(F)F)c2n1)c1ccccc1 [Compound 395]  inhibition at 10 µM   90.4%
4  O=C(Cc1c(C(=O)N2CCC(c3ccc(F)cc3)C2)nc2c(C(F)(F)F)cc(-c3ccoc3)cn12)NCc1ccccc1 (stereo not shown) [Compound 240]  inhibition at 10 µM   33.4%
5  O=C(NCc1cccs1)c1nc2c(Cl)cc(-c3ccccc3)cn2c1Br [Compound 369]  inhibition at 10 µM     88%
6  O=C(c1nc2c(C(F)(F)F)cc(-c3ccoc3)cn2c1Cl)N1CCCCC1c1ccccc1F (stereo not shown) [Compound 544]  inhibition at 10 µM   75.4%
7  O=C(c1nc2c(C(F)(F)F)cc(-c3ccoc3)cn2c1Cl)N1CC=C(c2ccn[nH]2)CC1 [Compound 584]  inhibition at 10 µM   72.5%

All values here come from patent US20120121540A1.
